test system: SF-268 CNS; experiment: NCI-60 one-dose screen, 48 h (100 = growth as untreated, 0 = no growth, -100 = all killed); conditions: 10 µM unless noted
Compounds without any hit were thinned out: in the full panel of roughly 83,000, 20% have a hit.
For each entry below, report its growth value.
Your answer should be a plain number; it is taken to be in %.

INPUT: Query growth for C#Cc1cccc(Nc2ncnc3ccc(-c4cncc(NS(C)(=O)=O)c4)cc23)c1
OUTPUT: 24.1

INPUT: For the molecule CCN(CC)c1nc(SCc2ccccc2Cl)ncc1C , give its measured growth value.
OUTPUT: 113

INPUT: State its growth for this molecule: CCN1CCN(Cc2cn(CC(=O)Nc3ccc4c(ccn4Cc4ccccc4)c3)nn2)CC1
OUTPUT: 95.9

INPUT: Specify reported growth for the molecule shown: CC(=O)N(N=Nc1ccccc1)c1cccc2ccccc12
OUTPUT: 92.8

INPUT: # return recorded growth for input N#Cc1cnc(NCCc2ccncc2)nc1-n1cnc2ccccc21
OUTPUT: 53

INPUT: For the molecule CC(O)c1cnc(/C=C2\SC(=S)N(Cc3ccccc3)C2=O)s1 (stereo unspecified) , give its reported growth.
OUTPUT: 84.3

INPUT: Provide one value: measured growth of O=C(O)c1[nH]c(=O)[nH]c(=O)c1[N+](=O)[O-]
OUTPUT: 117

INPUT: Recall and state the measured growth for OCCOCCN(Cc1ccccn1)Cc1cc(I)cc(I)c1O .
OUTPUT: 81.4

INPUT: Entry N#Cc1c(-c2cccs2)cc(-c2cccnc2)[nH]c1=O needs its growth filled in; supply it.
OUTPUT: 100

INPUT: Quickly give me recorded growth for O=C1N(Cc2ccccc2Cl)c2ccccc2C12NN=C(c1cccc(Cl)c1)S2 (stereo unspecified)
OUTPUT: 26.2

INPUT: Quick one: give measured growth for O=C1Nc2ccccc2[C@]12CC(c1ccccc1)=NN2
OUTPUT: 47.5
